- target_system: Peroxisome proliferator-activated receptor gamma (Homo sapiens) (UniProt P37231)
- Sequence (P37231 whole entry, looked up): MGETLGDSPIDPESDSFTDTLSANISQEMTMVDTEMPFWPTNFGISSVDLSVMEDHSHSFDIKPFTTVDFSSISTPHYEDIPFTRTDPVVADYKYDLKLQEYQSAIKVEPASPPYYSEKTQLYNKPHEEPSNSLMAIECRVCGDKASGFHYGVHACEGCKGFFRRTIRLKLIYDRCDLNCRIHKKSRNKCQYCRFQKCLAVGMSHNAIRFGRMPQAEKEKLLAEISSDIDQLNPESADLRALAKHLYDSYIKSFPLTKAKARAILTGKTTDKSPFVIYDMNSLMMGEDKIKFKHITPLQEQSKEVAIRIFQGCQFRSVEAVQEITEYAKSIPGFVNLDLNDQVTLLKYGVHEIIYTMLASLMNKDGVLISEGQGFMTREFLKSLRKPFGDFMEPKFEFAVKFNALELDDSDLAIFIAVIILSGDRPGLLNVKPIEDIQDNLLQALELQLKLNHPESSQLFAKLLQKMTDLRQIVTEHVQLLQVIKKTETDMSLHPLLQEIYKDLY
- measurement_protocol: ATG_PPARg_TRANS: Attagene TRANS-FACTORIAL HepG2 Assay for human Peroxisome Proliferator-activated Receptor-gamma (PPARg) (AID 2283007)
Results filed as inconclusive are left out. Calls of active or inactive are those of the source. How the source made its calls: active means hit-call score of the fitted dose curve at least 0.9, where 1 is the maximum; inconclusive means response in the unintended direction; inactive means score below 0.9.
A correct response names exactly one class from yes for active, no for inactive

These recorded examples may help you get a feel for the data.
1) O=C(c1ccccc1)c1ccc(Cl)cc1
yes
2) CC1=CC2C3C=CC(C3)C2C1C (configuration not stated)
no
3) Cc1ccc(S(=O)(=O)C(I)I)cc1
no
4) COC(F)(C(F)F)C(F)(F)F (configuration not stated)
no
5) CCCCCC/C=C/CCCCCCCC(=O)O
no

Q: Recorded test outcome, item NC(=O)C(F)(F)C(F)(F)C(F)(F)C(F)(F)C(F)(F)C(F)(F)C(F)(F)F
Ans: no

Q: Assay result, entry OCCCc1cccnc1 — outcome?
Ans: no

Q: Tell me the recorded outcome of this test for CC(C)(C)c1cc(CCC(=O)NCCCCCCNC(=O)CCc2cc(C(C)(C)C)c(O)c(C(C)(C)C)c2)cc(C(C)(C)C)c1O .
Ans: no

Q: Hi, sorry to bother you, what did the test record for CC(C)=CCCC(C)O (configuration not stated) ?
Ans: no

Q: What was the test verdict on O=C1c2c(O)ccc(Nc3ccc(CCO)cc3)c2C(=O)c2c([N+](=O)[O-])ccc(O)c21 ?
Ans: yes

Q: # lookup: test call for Brc1ccccn1
Ans: no

Q: Could you please tell me the result logged for O=C(O)C(F)(F)C(F)(F)C(F)(F)C(F)(F)C(F)(F)C(F)(F)C(F)F in this assay?
Ans: yes

* * *

- target_system: Peroxisome proliferator-activated receptor gamma (Homo sapiens)
- measurement_protocol: ATG_PPARg_TRANS: Attagene TRANS-FACTORIAL HepG2 Assay for human Peroxisome Proliferator-activated Receptor-gamma (PPARg) (AID 2283007)
Inconclusive results are not listed. The source made the active and inactive calls. How the source made its calls: active means hit-call score of the fitted dose curve at least 0.9, where 1 is the maximum; inconclusive means response in the unintended direction; inactive means score below 0.9.
experimental_endpoint: AC50

In the examples that follow, each entry is paired with its recorded AC50.
1. CCc1cccc(C)c1N(C(=O)C(=O)O)C(C)COC (stereo unspecified)
inactive
2. NC(=O)C(F)(F)C(F)(F)C(F)(F)C(F)F
inactive
3. Cc1ccc(O)cn1
inactive
4. NCC(F)(F)C(F)(F)C(F)(F)C(F)(F)C(F)(F)C(F)(F)C(F)(F)C(F)(F)F
inactive
5. CCC(=O)OC(C)c1ccccc1 (stereo unspecified)
inactive

Parameter requested: AC50. Apply to each item below.
1. CCCCCCCCn1sc(Cl)c(Cl)c1=O
2. O=C(O)C(F)(F)C(F)(F)C(F)(F)C(=O)O

Ans:
11.1 µM (active)
84.1 µM (active)

Parameter requested: AC50. Apply to each item below.
1. CCN(CC)c1ccc(C=O)c(O)c1
2. CO[Si](C)(CCC(F)(F)C(F)(F)C(F)(F)C(F)(F)C(F)(F)C(F)(F)F)OC
3. CCOC(=O)C1CC(=O)C(=C(O)C2CC2)C(=O)C1 (stereo unspecified)
4. O=C1C=CC(=O)N1c1ccc(Cc2ccc(N3C(=O)C=CC3=O)cc2)cc1
5. C=CC(=O)OCC(F)(F)C(F)(F)C(F)(F)COC(=O)C=C
6. CCOC(=O)CC(=O)C(F)(F)C(F)(F)F

Ans:
1. 15.3 µM (active)
2. inactive
3. inactive
4. inactive
5. 2.69 µM (active)
6. inactive

Provide the reported AC50 of each entry below, same order.
1. O=C1c2ccccc2C(=O)c2c(Cl)cccc21
2. CN1CN(C)CN(C)C1

Ans:
["inactive", "inactive"]

Would you mind listing AC50 for each of the following compounds?
1. O=C1OC(=O)c2ccc3c4c(ccc1c24)C(=O)OC3=O
2. Nc1cccnc1N
3. CN(C(=O)C(F)(F)C(F)(F)C(F)(F)F)[Si](C)(C)C
4. Cc1ccc(O)c(-n2nc3ccccc3n2)c1
5. CC(C)OC(=O)COc1ccc(Cl)cc1Cl
6. COCCOCCC[Si](C)(O[Si](C)(C)C)O[Si](C)(C)C

Ans:
1: inactive; 2: inactive; 3: inactive; 4: inactive; 5: inactive; 6: inactive

* * *

- measurement_protocol: CEETOX_H295R_MTT_cell_viability: Viability Assessment in the CeeTox HT-H295R MTT Assay (AID 2283718)
Active and inactive are the calls of the source. How the source made its calls: active means hit-call score of the fitted dose curve at least 0.9, where 1 is the maximum; inactive means score below 0.9.
Field 'call' accepts 1 (active), -1 (inactive)

1) O=C(c1ccccc1)c1ccc(Cl)cc1
-1
2) Cc1cccc(C)n1
-1
3) C[C@]12CC[C@H]3C(=CCc4cc(O)ccc43)[C@@H]1CCC2=O
-1

Q: For this molecule, state the assay outcome: CCOCOCC
Ans: -1

Q: Entry CSc1ccc(O)cc1C : call = ?
Ans: -1

Q: // param item: Nc1c(Br)cc([N+](=O)[O-])cc1Br ; yields the recorded call
Ans: 1

Q: I would be grateful if you could indicate the recorded call for Oc1ccc2c(c1)CCC2 .
Ans: -1

Q: Could you please tell me the result logged for CCn1c2ccccc2c2ccccc21 in this assay?
Ans: -1

* * *

- Read-out: E-selectin (Homo sapiens)
- measurement_protocol: BSK_LPS_Eselectin: BioMAP Diversity Plus: LPS Assay for Eselectin Biomarker Activity (AID 2283077)
- run_conditions: primary human HUVEC with PBMC; actives raise or lower the signal
Calls of active or inactive are those of the source. Rule for the calls: active = hit-call score of the fitted dose curve at least 0.9, where 1 is the maximum; inactive = score below 0.9.
Can you answer with just one of these options? 1.0 = active, 0.0 = inactive

1. FC(F)(F)C(F)(F)C(F)(F)CC1CO1 (stereo unspecified)
0.0

Q: Dear colleague, could you share the recorded outcome for CCOC(=O)CC(=O)C(F)(F)C(F)(F)F when you have a moment?
Ans: 0.0

Q: Any idea what this test logged for CCN(CC)c1ccc2c(c1)Oc1cc(N(CC)CC)ccc1C21OC(=O)c2ccccc21 ?
Ans: 0.0

Q: # lookup: test call for Cc1ccc(S(=O)(=O)C(I)I)cc1
Ans: 1.0

Q: # lookup: test call for O=C(O)C(F)(F)OC(F)(F)C(F)(F)OC(F)(F)C(F)(F)OC(F)(F)F
Ans: 0.0

Q: Returns: the outcome recorded for CCOC(C=C(C)CCC=C(C)C)OCC in this assay.
Ans: 1.0

Q: Recorded test call requested for Nc1cc([N+](=O)[O-])cc(Cl)c1O
Ans: 0.0

Q: So what was the verdict on FC(F)(F)C(F)(F)C(F)(F)C(F)(F)C(F)(F)C(F)(F)CC[Si](Cl)(Cl)Cl in this test?
Ans: 0.0

Q: What classification did CC(C)(C)c1cc(CCC(=O)NCCCCCCNC(=O)CCc2cc(C(C)(C)C)c(O)c(C(C)(C)C)c2)cc(C(C)(C)C)c1O end up with in this test?
Ans: 0.0

Q: // outcome(item) with item = O=C(Cl)C(F)(F)C(F)(F)C(F)(F)C(F)(F)C(F)(F)C(F)(F)C(F)(F)F
Ans: 0.0

Q: In this assay, the call recorded for O=S(=O)(O)CCC(F)(F)C(F)(F)C(F)(F)C(F)(F)F was what?
Ans: 0.0

* * *

- measurement_protocol: ATG_GATA_CIS: Attagene CIS-FACTORIAL HepG2 Assay for human GATA Binding Protein (AID 2282944)
- run_conditions: HepG2 GATA cis-element reporter, Attagene multiplex mRNA; actives raise or lower the signal
The source made the active and inactive calls. The calls were made as follows: active = hit-call score of the fitted dose curve at least 0.9, where 1 is the maximum; inactive = score below 0.9.
experimental_endpoint: outcome

Below, 4 molecules whose answers are already recorded.
1. CC(C)(C)C(=O)C1C(=O)c2ccccc2C1=O
inactive
2. CCN(CC)c1ccc(N=Nc2ccccc2)cc1
inactive
3. OCC(F)(F)C(F)(F)C(F)(F)C(F)(F)C(F)(F)C(F)(F)C(F)(F)C(F)(F)CO
inactive
4. Cc1ccc([N+](=O)[O-])c(C)c1
inactive

Hello, I would appreciate it if you could give outcome for each entry below.
1. CC(C)(C)c1cc(CCC(=O)OCC(COC(=O)CCc2cc(C(C)(C)C)c(O)c(C(C)(C)C)c2)(COC(=O)CCc2cc(C(C)(C)C)c(O)c(C(C)(C)C)c2)COC(=O)CCc2cc(C(C)(C)C)c(O)c(C(C)(C)C)c2)cc(C(C)(C)C)c1O
2. O=C1OC(=O)c2ccc3c4c(ccc1c24)C(=O)OC3=O

Ans:
inactive
inactive

* * *

- measurement_protocol: TOX21_p53_BLA_p5_viability: Viability Assessment in the Tox21 HCT-116 p53 Agonism Beta-lactamase Assay, Phase 5 (AID 2283600)
Inconclusive results are not listed. Calls of active or inactive are those of the source. The calls were made as follows: active = hit-call score of the fitted dose curve at least 0.9, where 1 is the maximum; inconclusive = response in the unintended direction; inactive = score below 0.9.
Pick one and only one: 1 (yes) for active, 0 (no) for inactive

Example cases with answers are listed next.
1. F[Si-2](F)(F)(F)(F)F
0 (no)
2. C[C@]12CC[C@H]3C(=CCc4cc(O)ccc43)[C@@H]1CCC2=O
0 (no)
3. Cc1ccc([N+](=O)[O-])c(C)c1
0 (no)
4. CSc1ccc(Cl)cc1
0 (no)
5. CCCCCCCCn1sc(Cl)c(Cl)c1=O
0 (no)
6. CCCCCCCC/C=C\CCCCCCCC(=O)N(C)CC(=O)O
1 (yes)

Q: Test call, this compound: CC(C)Nc1ccc(NC(C)C)c2c1C(=O)c1ccccc1C2=O
Ans: 0 (no)

Q: Look up the recorded call for C=CCOC(=O)CC(C)C in this test.
Ans: 0 (no)

Q: For O=C1C=CC(=O)N1c1ccccc1 , what call appears in the results of this test?
Ans: 1 (yes)

Q: Recorded test outcome, item Cc1cc(O)c(C(C)(C)C)cc1C(C)(C)C
Ans: 1 (yes)

Q: Name the outcome recorded for CCCCOC(=O)[C@H](C)O in the assay.
Ans: 0 (no)

Q: # fetch the recorded call for OCC1CCCO1 (stereo not given) here
Ans: 0 (no)

Q: Tell me the recorded outcome of this test for Cc1cc(=O)[nH]c(C(C)C)n1 .
Ans: 0 (no)

Q: Status in this test for CCC/C=C/CO ?
Ans: 0 (no)

Q: For Brc1nc2ccccc2s1 , which call appears in the assay record?
Ans: 0 (no)
